B1: Neurotensin receptor type 1, P20789 (parent)
chain: MHLNSSVPQGTPGEPDAQPFSGPQSEMEATFLALSLSNGSGNTSESDTAGPNSDLDVNTDIYSKVLVTAIYLALFVVGTVGNSVTAFTLARKKSLQSLQSTVHYHLGSLALSDLLILLLAMPVELYNFIWVHHPWAFGDAGCRGYYFLRDACTYATALNVASLSVERYLAICHPFKAKTLMSRSRTKKFISAIWLASALLAIPMLFTMGLQNRSGDGTHPGGLVCTPIVDTATVKVVIQVNTFMSFLFPMLVISILNTVIANKLTVMVHQAAEQGRVCTVGTHNGLEHSTFNMTIEPGRVQALRHGVLVLRAVVIAFVVCWLPYHVRRLMFCYISDEQWTTFLFDFYHYFYMLTNALFYVSSAINPILYNLVSANFRQVFLSTLACLCPGWRHRRKKRPTFSRKPNSMSSNHAFSTSATRETLY

Variants of: B1
runParameters: Rattus norvegicus; pH 7.4; Heat treatment; Activity; Tris-HCl 50 mM; structure 4BUO; whole UniProt chain shown
measurementKind: Tm (°C)

F358A A86L H103A I260A = 49
F358A H103A I260A F342A = 50
F358A A86L H103A I260A F342A = 50
F358A A86L H103A F342A = 50
A86L I260A F342A = 47
F358A A86L H103A = 48
A86L F358A = 48
F358A A86L I260A = 49
A86L I260A F342A F358A = 50

Where do the numbers come from? From FireProtDB (doi:10.1016/j.jmb.2009.04.068).
